- Tested on: RIVA
- PROTOCOL DETAILS: growth inhibition by drug plus 177Lu-lilotomab satetraxetan (1 - RLU/untreated control) (fraction); higher = stronger inhibition
- CONDITION: 100 nM; time (day): 6; 177Lu-lilotomab satetraxetan 0.5 ug/ml
RECORDED ENDPOINT: growth inhibition by drug plus 177Lu-lilotomab satetraxetan

[[record]]
structure_smiles = "O=C(O)c1ccc(-c2c[nH]c3ncc(-c4ccccc4)cc23)cc1C1CCCC1"
assay_system = "RIVA"
reported_result = 0.51

[[record]]
structure_smiles = "OC[C@H]1O[C@@H](n2cnc3c2N=CNC[C@H]3O)C[C@@H]1O"
assay_system = "RIVA"
reported_result = 0.513

[[record]]
structure_smiles = "CC(C)C[C@@H](C(=O)N[C@H](C(=O)OC1CCCC1)c1ccccc1)[C@H](O)C(=O)NO"
assay_system = "RIVA"
reported_result = 0.604

[[record]]
structure_smiles = "Nc1ccccc1NC(=O)c1ccc(CNC(=O)OCc2cccnc2)cc1"
assay_system = "RIVA"
reported_result = 0.595

